The following binders are listed with their measured IC50, LTβR NF-κB luciferase reporter, free LIGHT values.
# TESTED ON: T1, His-human LIGHT (human)
# T1 chain: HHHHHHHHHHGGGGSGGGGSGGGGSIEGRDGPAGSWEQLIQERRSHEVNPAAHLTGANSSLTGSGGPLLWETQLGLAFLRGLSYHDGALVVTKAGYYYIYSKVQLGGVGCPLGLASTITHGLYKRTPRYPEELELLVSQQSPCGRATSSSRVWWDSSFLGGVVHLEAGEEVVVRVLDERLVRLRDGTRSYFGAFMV
# ASSAY EXPLANATION: cell-based or functional assay
Please give a number only; it is taken to be in nM.

The cases that follow already have their IC50, LTβR NF-κB luciferase reporter, free LIGHT on record.
| BINDER | UNIT STRING | REPORTED VALUE |
| --- | --- | --- |
| hum_LT-m85-2 (antibody, human IgG4, V domains shown, humanized from LT-m85) VH: QVQLVQSGAEVKKPGASVKVSCKASGYTFTSYNVHWVRQAPGQGLEWMGAVYPGNGDTSYNQKFKGRATLTADKSTSTAYMELSSLRSEDTAVYYCARGSYYYTSSYFDHWGQGTLVTVSS VL: EIVMTQSPATLSVSPGERATLSCKASQSVDFDGDSYMNWYQQKPGQPPRLLIYTASNLESGIPARFSGSGSGTEFTLTISSLQSEDFAVYYCQQSYEDPFTFGQGTKLEIK | nM | 0.0613 |
| hum_LT-m85-4 (antibody, human IgG4, V domains shown, humanized from LT-m85) VH: QVQLVQSGAEVKKPGASVKVSCKASGYTFTSYNVHWVRQAPGQGLEWIGAVYPGNGDTSYNQKFKGRATLTADKSTSTAYMELSSLRSEDTAVYYCARGSYYYTSSYFDHWGQGTLVTVSS VL: EIVMTQSPATLSVSPGERATLSCKASQSVDFDGDSYMNWYQQKPGQAPRLLIYTASNLESGIPARFSGSGSGTEFTLTISSLQSEDFAVYYCQQSYEDPFTFGQGTKLEIK | nM | 0.253 |

From here, focus on the item given below.
stdin: Give its IC50, LTβR NF-κB luciferase reporter, free LIGHT value. Item: hum_LT-m85-1 (antibody, human IgG4, V domains shown, humanized from LT-m85) VH: QVQLVQSGAEVKKPGASVKVSCKASGYTFTSYNVHWVRQAPGQGLEWIGAVYPGNGDTSYNQKFKGRATLTADKSTSTVYMELSSLRSEDTAVYYCARGSYYYTSSYFDHWGQGTLVTVSS VL: EIVLTQSPATLSVSPGERATLSCKASQSVDFDGDSYMNWYQQKPGQPPRLLIYTASNLESGIPARFSGSGSGTEFTLTISSLQSEDFAVYYCQQSYEDPFTFGQGTKLEIK
stdout: 0.649
